- experiment-description: Mouse colon distribution
- Assay type: in vivo
- experimental-context: colon / plasma, PO 200 mg/kg, read-out: Colon/Plasma Ratio at 12 h
measure: Kp at 12 h

Q: What measured Kp at 12 h goes with C[C@@H](c1ccc(Nc2cc(Nc3ncccc3S(C)(=O)=O)ncn2)nc1)N1CC2(COC2)C1 [Compound 1] ?
A: 25

Q: And for C[C@@H](c1ccc(Nc2cc(Nc3ncc(F)cc3S(C)(=O)=O)ncn2)nc1)N1CC2(COC2)C1 [Compound 2] ?
A: 7.4

----------
- experiment-description: Plasma and tissue distribution in SD rats
- Format: in vivo
- experimental-context: ovary and uterus; female SD rat, PO 10 mg/kg, Ovary & Uterus
measure: Cmax (ng/g)
Number in ng/g, nothing else.

Q: What measured Cmax goes with C[C@@H](c1ccc(Nc2cc(Nc3ncccc3S(C)(=O)=O)ncn2)nc1)N1CC2(COC2)C1 [Compound 1] ?
A: 976

The measurements presented in this section are drawn from patent US20260048051A1.
